- Target Of Assay: T1, Fusion protein of LAG-3 extracellular region and hIgG1 Fc (human)
- T1 construct: Limits of the signal peptide are marked only by lost underlining; also called LAG-3-Fc; LAG-3-Fc fusion protein
- T1 sequence (chain, as listed by the source limits assumed): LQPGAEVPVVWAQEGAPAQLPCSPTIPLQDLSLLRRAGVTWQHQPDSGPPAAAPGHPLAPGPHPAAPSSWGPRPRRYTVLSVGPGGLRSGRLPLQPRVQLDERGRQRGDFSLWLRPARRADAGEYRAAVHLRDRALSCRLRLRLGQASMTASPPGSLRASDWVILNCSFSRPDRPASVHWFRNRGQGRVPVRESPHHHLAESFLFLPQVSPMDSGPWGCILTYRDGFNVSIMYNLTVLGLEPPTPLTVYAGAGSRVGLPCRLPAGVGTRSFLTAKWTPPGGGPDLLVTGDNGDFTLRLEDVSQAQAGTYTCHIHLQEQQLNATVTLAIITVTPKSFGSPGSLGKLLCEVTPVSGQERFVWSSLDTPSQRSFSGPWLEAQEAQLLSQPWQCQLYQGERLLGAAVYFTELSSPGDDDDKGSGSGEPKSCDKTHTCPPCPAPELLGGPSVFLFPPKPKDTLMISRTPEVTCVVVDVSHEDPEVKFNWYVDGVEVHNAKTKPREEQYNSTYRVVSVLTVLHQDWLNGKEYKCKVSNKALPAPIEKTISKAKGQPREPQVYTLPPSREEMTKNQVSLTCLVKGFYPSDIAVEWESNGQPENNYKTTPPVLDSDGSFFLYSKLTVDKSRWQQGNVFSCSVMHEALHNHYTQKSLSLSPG
- Assay Overview: competition: biotin-LAG-3-Fc binding to fixed Daudi cells, antibody titrated
Rule: IC50 below 0.6 nM gives 1, anything at or above gives -1.

Just wondering, is IC50 of Hu303-020 (antibody, human IgG4 S228P, kappa, V domains shown, Humanized mAb303) VH: QVQLVQSGAEVKKPGASVKVSCKASGYTLTDYYMNWVRQAPGQRLEWIGVINPYNGDTAYNQKFKGRATLTVDKSASTAYMELSSLRSEDTAVYYCTRDDGYYDYYFDVWGQGTTVTVSS VL: DIQMTQSPSSLSASVGDRVTITCRASQDIGSRLNWYQQKPGKAPKRLIYATSTLDSGVPSRFSGSRSGTDFTLTISSLQPEDFATYYCLQLASSPPTFGGGTKVEIKR below 0.6 nM?
1

Lab note: IC50 threshold 0.6 nM. Does this binder come in strictly under it? Hu229-009 (antibody, human IgG4 S228P, kappa, V domains shown, Humanized mAb229) VH: QVQLVQSGSELKKPGASVKVSCKASGYTFTTSGMSWVRQAPGQGLKWMGWINTYSGVPTYADDFKGRFVFSLDTSVSTAYLQISSLKAEDTAVYYCARDNYDARDVYYYAMDYWGQGTTVTVSS VL: DIQMTQSPSSLSASVGDRVTITCRASENIYSNLAWYQQKPGKAPKLLVYAATNLADGVPSRFSGSGSGTDYTLTISSLQPEDFATYYCQHFWITPWTFGGGTKVEIKR
1

Given the entry Hu229-014 (antibody, human IgG4 S228P, kappa, V domains shown, Humanized mAb229) VH: QVQLVQSGSELKKPGASVKVSCKASGYTFTTSGMSWVKQAPGQGLKWMGWINTYSGVPTYADDFKGRFVFSLDTSVSTAYLQISSLKAEDTATYYCARDNYDARDVYYYAMDYWGQGTTVTVSS VL: DIQMTQSPSSLSASVGDRVTITCRASENIYSNLAWYQQKPGKAPKLLVYAATNLADGVPSRFSGSGSGTQYTLTISSLQPEDFATYYCQHFWITPWTFGGGTKVEIKR , would its reported IC50 be below 0.6 nM?
-1

Dear reviewer, please state whether Hu303-021 (antibody, human IgG4 S228P, kappa, V domains shown, Humanized mAb303) VH: QVQLVQSGAEVKKPGASVKVSCKASGYTLTDYYMNWVRQAPGQRLEWIGVINPYNGDTAYNQKFKGRATLTVDKSASTAYMELSSLRSEDTAVYYCTRDDGYYDYYFDVWGQGTTVTVSS VL: DIQMTQSPSSLSASVGDRVTITCRASQDIGSRLNWYQQKPGKAPKRLIYATSTLDSGVPKRFSGSRSGTDFTLTISSLQPEDFATYYCLQLASSPPTFGGGTKVEIKR has IC50 strictly beneath 0.6 nM.
1
